Data provenance is patent US20140073637A1.

molecular target: NUAK1 (Homo sapiens); construct: Reaction biology Corp (USA), service; experiment: In vitro IC50 on recombinant kinase
Sequence (O60285 whole entry, species assumed): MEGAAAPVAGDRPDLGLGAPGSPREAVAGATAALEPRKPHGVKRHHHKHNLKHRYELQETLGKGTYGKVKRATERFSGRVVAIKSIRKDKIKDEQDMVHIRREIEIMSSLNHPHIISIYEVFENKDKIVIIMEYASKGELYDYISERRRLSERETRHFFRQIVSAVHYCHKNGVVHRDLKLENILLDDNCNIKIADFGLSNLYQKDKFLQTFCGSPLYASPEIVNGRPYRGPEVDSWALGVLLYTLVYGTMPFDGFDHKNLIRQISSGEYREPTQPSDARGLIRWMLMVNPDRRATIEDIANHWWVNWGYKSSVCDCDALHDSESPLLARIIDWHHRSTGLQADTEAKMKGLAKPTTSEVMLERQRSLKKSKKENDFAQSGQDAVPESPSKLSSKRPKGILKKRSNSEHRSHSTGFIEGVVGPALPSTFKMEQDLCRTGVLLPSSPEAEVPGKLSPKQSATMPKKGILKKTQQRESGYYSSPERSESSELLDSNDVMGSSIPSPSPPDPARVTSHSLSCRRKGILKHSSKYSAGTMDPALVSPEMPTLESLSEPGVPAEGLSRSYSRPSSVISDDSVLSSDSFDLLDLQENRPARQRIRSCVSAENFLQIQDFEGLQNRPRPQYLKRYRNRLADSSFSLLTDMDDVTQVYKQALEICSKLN
assayEndpoint: IC50

{"mol": "CCc1c[nH]c(=O)c2c1[nH]c1ccc3cc(OCCN(C)C)ccc3c12", "IC50": "5.7 nM"}
{"mol": "Cc1c[nH]c(=O)c2c1[nH]c1ccc3cc(OCCN4CCOCC4)ccc3c12", "IC50": "1.6 nM"}

[ask] Reported IC50, molecule Cc1c[nH]c(=O)c2c1[nH]c1ccc3cc(OCCN(C)C)ccc3c12 : ____
[reply] 1.4 nM

###

Biological target: Aurora B (Homo sapiens, UniProt Q96GD4)
Sequence (Q96GD4 whole entry): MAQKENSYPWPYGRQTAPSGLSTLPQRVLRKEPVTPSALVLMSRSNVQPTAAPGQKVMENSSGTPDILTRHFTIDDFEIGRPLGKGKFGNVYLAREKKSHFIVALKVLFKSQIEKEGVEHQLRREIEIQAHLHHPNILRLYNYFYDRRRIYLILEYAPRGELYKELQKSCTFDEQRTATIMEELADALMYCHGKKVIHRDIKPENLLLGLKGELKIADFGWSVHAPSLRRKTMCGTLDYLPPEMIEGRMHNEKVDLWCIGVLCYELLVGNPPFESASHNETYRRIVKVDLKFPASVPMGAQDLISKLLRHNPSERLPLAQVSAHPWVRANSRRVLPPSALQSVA
Experiment: Aurora B inhibition in cells: Histone H3 Ser10 phosphorylation by western blotting and immunofluorescence
Assay type: cell-based
Design: endogenous in cells; host or cells: U2OS (human osteosarcoma); HeLa also used for the maleate salts
Settings: U2OS mitotic extracts; 1 μM overnight; western blotting (FIG. 3)
Protocol: Actin is used as control of quantity. Cells were incubated overnight in the presence of either C1, or C2 or CH21 or C14 or DMSO(C: control). All compounds were tested at 1 μM. Proteins were detected by western blotting. Cells were incubated with the different molecules and Aurora B inhibition is estimated by western blotting (WB) and immuno fluorescent experiments. Histone H3 phosphorylated on Ser10 is used as a marker of Aurora B kinase activity and actin as an internal control. […]
assayEndpoint: Aurora B inhibition in cellulo (Histone H3 phosphorylation, in words)

{"compound": "CCc1c[nH]c(=O)c2c1[nH]c1ccc3cc(OC)ccc3c12 [Compound C1, reference compound]", "measuredValue": "inhibit efficiently"}
{"compound": "Cc1c[nH]c(=O)c2c1[nH]c1ccc3cc(OCCN(C)C)ccc3c12", "measuredValue": "inhibit efficiently"}
